All values here come from patent US11702404B2.

Assay: Microsomal stability, human liver microsomes (predicted hepatic clearance)
Settings: predicted from in vitro microsomal stability data
measuredAttribute: Predicted Hepatic Clearance (Pred. Cl.) (mL/min/kg)
Reply numerically in mL/min/kg, unit not repeated.

Consider the compound O=C(O)c1ccc2nc(Cc3cc(F)c(-c4cccc(OCc5ccc(Cl)nc5OC(F)F)n4)cc3F)n(C[C@@H]3CCO3)c2c1 . State its measured Predicted Hepatic Clearance (Pred. Cl.).
1.83

Consider the compound COCCn1c(Cc2ccc(-c3nc(OCc4ccc(C#N)cc4F)c(F)cc3F)cc2F)nc2ccc(C(=O)O)cc21 . State its measured Predicted Hepatic Clearance (Pred. Cl.).
4.5

Consider the compound CO[C@@H]1CN(C(C)=O)C[C@H]1n1c(Cc2cc(F)c(-c3cccc(OCc4ccc(C#N)cc4F)n3)cc2F)nc2ccc(C(=O)O)cc21 . State its measured Predicted Hepatic Clearance (Pred. Cl.).
4.67

Consider the compound COCCn1c(Cc2cc(F)c(-c3cccc(OCc4ccc(Cl)nc4F)n3)cc2F)nc2ccc(C(=O)O)cc21 . State its measured Predicted Hepatic Clearance (Pred. Cl.).
1.83

====

Target: UniProt:P43220
Test: GLP-1R activation: cAMP increase in CHO cells stably expressing GLP-1R
Format: cell-based
Settings: cAMP increase, CHO cells stably expressing GLP-1R, 10 point dose response, 30 minutes incubation; read-out: EC50
measuredAttribute: EC50 (nM)
Reply numerically in nM, unit not repeated.

Sample answers from the record:
[[record]]
querysmiles = "COCCn1c(Cc2cc(F)c(-c3ncc(F)c(OCc4ccc(C#N)cc4F)n3)cc2F)nc2ccc(C(=O)O)cc21"
measuredattribute = "EC50"
readoutnumber = 10.2

[[record]]
querysmiles = "N#Cc1ccc(COc2cccc(-c3ccc(Cc4nc5ccc(C(=O)O)cc5n4CCC4(CF)CC4)c(F)c3)n2)c(F)c1"
measuredattribute = "EC50"
readoutnumber = 6.06

[[record]]
querysmiles = "N#Cc1ccc(COc2cccc(-c3cc(F)c(Cc4nc5ccc(C(=O)O)cc5n4CC4(n5cncn5)CC4)cc3F)n2)c(F)c1"
measuredattribute = "EC50"
readoutnumber = 0.23


Lab note: record EC50 of COC(=O)N1CC(Cn2c(Cc3cc(F)c(-c4cccc(OCc5ccc(C#N)cc5F)n4)cc3F)nc3ccc(C(=O)O)cc32)(OC)C1 tested on UniProt:P43220.
197

Lab note: record EC50 of COCCn1c(Cc2ccc(-c3cccc(OCc4cccc(OCC(F)F)c4)n3)cc2F)nc2ccc(C(=O)O)cc21 tested on UniProt:P43220.
26.4

Lab note: record EC50 of Cc1cc2nc(Cc3cc(F)c(-c4cccc(OCc5ccc(C#N)cc5F)n4)cc3F)n(C[C@@H]3CCO3)c2cc1C(=O)O tested on UniProt:P43220.
0.33

Lab note: record EC50 of COCCn1c(Cc2ccc(-c3cccc(OCc4ccc(C#N)cc4F)n3)cc2C#N)nc2ccc(C(=O)O)cc21 tested on UniProt:P43220.
0.78

Lab note: record EC50 of COCCn1c(Cc2cc(F)c(-c3cccc(OCc4ccc(C#N)cc4F)n3)cc2F)nc2ccc(-c3nn[nH]n3)cc21 tested on UniProt:P43220.
21.4

====

Recorded pEC50, one value per entry.
Target: GLP-1R (Homo sapiens, UniProt P43220)
Sequence (P43220 24-463): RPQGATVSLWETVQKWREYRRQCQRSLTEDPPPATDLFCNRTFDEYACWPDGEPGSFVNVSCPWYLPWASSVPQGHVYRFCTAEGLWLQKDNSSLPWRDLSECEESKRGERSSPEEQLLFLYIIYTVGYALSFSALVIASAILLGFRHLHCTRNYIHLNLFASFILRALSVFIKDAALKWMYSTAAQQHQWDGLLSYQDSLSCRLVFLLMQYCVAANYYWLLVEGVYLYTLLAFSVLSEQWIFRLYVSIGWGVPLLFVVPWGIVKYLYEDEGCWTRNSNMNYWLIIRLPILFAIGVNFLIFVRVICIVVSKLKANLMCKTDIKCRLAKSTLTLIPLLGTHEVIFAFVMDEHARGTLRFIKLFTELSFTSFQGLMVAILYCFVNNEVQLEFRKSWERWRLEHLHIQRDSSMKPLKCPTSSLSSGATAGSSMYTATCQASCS
Assay: GLP-1R activation: cAMP increase in CHO cells stably expressing GLP-1R
Type: cell-based
Settings: cAMP increase, CHO cells stably expressing GLP-1R, 10 point dose response, 30 minutes incubation; read-out: EC50
When answering, recall that pEC50 equals minus log10 of the concentration in mol/L, and write that number alone.

Sample answers from the record:
[[record]]
compound = "N#CCC1(Cn2c(Cc3ccc(-c4cccc(OCc5ccc(C#N)cc5F)n4)cc3F)nc3ccc(C(=O)O)nc32)CC1 [Example 600]"
measuredattribute = "pEC50"
readoutnumber = 10.00

[[record]]
compound = "N#Cc1ccc(COc2cccc(-c3ccc(Cc4nc5ccc(C(=O)O)cc5n4CC4(n5ccnn5)CC4)c(F)c3)n2)c(F)c1 [Example 284]"
measuredattribute = "pEC50"
readoutnumber = 8.54

[[record]]
compound = "N#Cc1cc(F)c(COc2cccc(-c3cc(F)c(Cc4nc5c(F)cc(C(=O)O)cc5n4Cc4ncco4)cc3F)n2)cc1F [Example 784]"
measuredattribute = "pEC50"
readoutnumber = 9.26


Consider the compound COCCn1c(Cc2c(F)cc(-c3nccnc3OCc3ccc(C#N)cc3F)cc2F)nc2ccc(C(=O)O)cc21 [Example 177] . State its measured pEC50.
6.48

Consider the compound COCCn1c(Cc2cc(F)c(-c3cccc(OCc4ccc(C#N)nc4)n3)cc2F)nc2c(F)cc(C(=O)O)cc21 [Example 657] . State its measured pEC50.
8.23

Consider the compound COCCn1c(Cn2cc(F)c(-c3cccc(OCc4ccc(C#N)cc4F)n3)cc2=O)nc2ccc(C(=O)O)cc21 [Example 434] . State its measured pEC50.
8.54

Consider the compound CC1(Cn2c(Cc3ccc(-c4cccc(OCc5ccc(C#N)cc5F)n4)cc3F)nc3ccc(C(=O)O)cc32)CCC1 [Example 384] . State its measured pEC50.
8.84

Consider the compound O=C(O)c1ccc2nc(Cc3cc(F)c(-c4cccc(OCc5ccc(Cl)cc5)n4)cc3F)n(Cc3ncco3)c2c1 [Example 819] . State its measured pEC50.
9.07

Consider the compound COCCn1c(Cc2ccc(-c3cccc(OCc4ccc(C#N)cc4OC)n3)cc2F)nc2ccc(C(=O)O)cc21 [Example 243] . State its measured pEC50.
9.06
